Reported values of pKd for individual entries
# EXPERIMENTAL TARGET: the molecule itself
# PROTOCOL DESCRIPTION: AUC
pKd: −log10 of the molar value.
ENDPOINT NAME: pKd

{"PROTEIN": "PupR-ASD L61D (domain or fragment, Pseudomonas putida WCS358) GAMGMNGQGATSIPGEVAEQAMHWHLELQEPAVSAATLAACMSWRQAHPLHEHAWQRTQVFAQRDREMRSPGQRPLAHAALRPQQS", "ENDPOINT NAME": "pKd", "RELATION OPERATOR": "<", "ASSAY VALUE": 3.30}
{"PROTEIN": "PupR-ASD Q42D (domain or fragment, Pseudomonas putida WCS358) GAMGMNGQGATSIPGEVAEQAMHWHLELQEPAVSAATLAACMSWRDAHPLHEHAWQRTQVFAQRLREMRSPGQRPLAHAALRPQQS", "ENDPOINT NAME": "pKd", "RELATION OPERATOR": "=", "ASSAY VALUE": 4.74}
{"PROTEIN": "PupR-ASD L22D (domain or fragment, Pseudomonas putida WCS358) GAMGMNGQGATSIPGEVAEQAMHWHDELQEPAVSAATLAACMSWRQAHPLHEHAWQRTQVFAQRLREMRSPGQRPLAHAALRPQQS", "ENDPOINT NAME": "pKd", "RELATION OPERATOR": "<", "ASSAY VALUE": 3.70}
{"PROTEIN": "PupR-ASD M38D (domain or fragment, Pseudomonas putida WCS358) GAMGMNGQGATSIPGEVAEQAMHWHLELQEPAVSAATLAACDSWRQAHPLHEHAWQRTQVFAQRLREMRSPGQRPLAHAALRPQQS", "ENDPOINT NAME": "pKd", "RELATION OPERATOR": "=", "ASSAY VALUE": 4.94}
